Every entry's value here was drawn from PubChem BioAssay (NCATS).

- Measurement notes: Primary qHTS for inhibitors of nuclear receptor binding SET domain protein 2 (NSD2) in an isogenic RCH-ACV NSD2 p.E1099K mutant (9B) (AID 1645876); note: nearly all actives have a fitted effect of over 70% in size
- Condition context: RCH-ACV (leukaemia line) NSD2 E1099K (9B) viability, CellTiter-Glo, 72 h; series mostly up to 44.9 µM
Results filed as inconclusive are left out. The source made the active and inactive calls. Calls come from the whole dose curve; as a rule, active = well fitted inhibition curve with a large enough effect; inconclusive = small, poorly fitted or top-dose-only effect; inactive = flat fitted curve, though single readings scatter.
Permitted responses: 1 (yes) for active, 0 (no) for inactive

stdin: Tell me the assay call for `CN(C)CCOC(c1ccccc1)c1ccccc1` please.
stdout: 0 (no)

stdin: Next: `NCCCCCC(=O)O`
stdout: 0 (no)

stdin: Next: CC1COc2c(N3CCN(C)CC3)c(F)cc3c(=O)c(C(=O)O)cn1c23 (stereo not drawn)
stdout: 0 (no)

stdin: Next: `NS(=O)(=O)c1cc2c(cc1Cl)NCNS2(=O)=O`
stdout: 0 (no)

stdin: Next: `CC(C)(C)C(=O)Oc1ccc(S(=O)(=O)Nc2ccccc2C(=O)NCC(=O)O)cc1`
stdout: 0 (no)

stdin: Next: `NC(=O)NO`
stdout: 0 (no)

stdin: Next: `CS(=O)(=O)Nc1ccc([N+](=O)[O-])cc1Oc1ccccc1`
stdout: 0 (no)

Others:
stdin: Tell me the assay call for NC(CO)C(=O)NNCc1ccc(O)c(O)c1O (stereo not drawn) please.
stdout: 1 (yes)

====

- Measurement notes: Quantitative High-Throughput drug screen in 47 multiple myeloma cell lines against the NCATS MIPE library collection: LP1_DSMZ cell viability assay (AID 1918982); note: nearly all actives have a fitted effect of over 35% in size; note: potency is the fitted concentration of half-maximal effect
- Condition context: LP1 myeloma viability, CellTiter-Glo ATP luminescence, 48 h; series mostly up to 45.8 µM
Inconclusive results are not listed. Activity calls are given as the source filed them. Calls follow the shape of the dose curve; as a rule, active = well fitted cell-killing curve with a large enough effect; inconclusive = small, poorly fitted or top-dose-only effect, or effect the other way; inactive = no such curve, though single readings can be large or run the other way.
Reported property: Potency

Some compounds with recorded Potency:
stdin: Which value of Potency has been reported for CC1COc2c(N3CCN(C)CC3)c(F)cc3c(=O)c(C(=O)O)cn1c23 (centres undefined) in the records?
stdout: inactive

stdin: Next: CC(C)(Oc1ccc(C2CC2(Cl)Cl)cc1)C(=O)O (centres undefined)
stdout: inactive

stdin: Next: Cc1ccccc1N1C(=O)c2cc(S(N)(=O)=O)c(Cl)cc2NC1C (centres undefined)
stdout: inactive

stdin: Next: `CCOC(=O)c1ncn2c1CN(C)C(=O)c1cc(F)ccc1-2`
stdout: inactive

stdin: Next: `O=C1c2c(O)ccc(O)c2C(=O)c2c(NCCNCCO)ccc(NCCNCCO)c21`
stdout: 5.9 µM (active)

stdin: Next: `CC12CC3CC(C)(C1)CC(N)(C3)C2`
stdout: inactive

stdin: Next: `COc1cc2c(c(OC)c1OC)-c1ccc(OC)c(=O)cc1[C@@H](NC(C)=O)CC2`
stdout: inactive

stdin: Next: `N[C@@H](Cc1c[nH]c2ccc(O)cc12)C(=O)O`
stdout: inactive

stdin: Next: `Nc1c2c(nc3ccccc13)CCCC2`
stdout: inactive

stdin: Next: `O=c1[nH]cc(F)c(=O)[nH]1`
stdout: 14.8 µM (active)

Others:
stdin: Which value of Potency has been reported for `COc1ccc2c(c1)c(CC(=O)O)c(C)n2C(=O)c1ccc(Cl)cc1` in the records?
stdout: inactive

stdin: Next: `Cn1cnc2c1c(=O)[nH]c(=O)n2C`
stdout: 16.6 µM (active)

stdin: Next: COc1ccccc1N1CCN(CC(O)COc2cccc3ccccc23)CC1 (centres undefined)
stdout: inactive

stdin: Next: `COc1nc(C)nc(Cl)c1NC1=NCCN1`
stdout: inactive

stdin: Next: `Clc1ccc2nsnc2c1NC1=NCCN1`
stdout: inactive

====

- Measurement notes: Quantitative High-Throughput drug screen in 47 multiple myeloma cell lines against the NCATS MIPE library collection: VP6_DJ cell viability assay (AID 1919867); note: nearly all actives have a fitted effect of over 40% in size
- Condition context: ATP luminescence, 48 h; series mostly up to 45.8 µM
Records with an inconclusive call do not appear. Calls of active or inactive are those of the source. Calls follow the shape of the dose curve; as a rule, active = well fitted cell-killing curve with a large enough effect; inconclusive = small, poorly fitted or top-dose-only effect, or effect the other way; inactive = no such curve, though single readings can be large or run the other way.
Permitted responses: label 1 for active, label 0 for inactive

These recorded examples may help you get a feel for the data.
stdin: Tell me the assay call for CC(C)NCC(O)c1ccc(O)c(O)c1 (centres undefined) please.
stdout: label 1

stdin: Next: CC(CCc1ccc(O)cc1)NCCc1ccc(O)c(O)c1 (centres undefined)
stdout: label 1

stdin: Next: `CS(=O)(=O)Nc1ccc([N+](=O)[O-])cc1Oc1ccccc1`
stdout: label 0

stdin: Next: `CNCCCC12CCC(c3ccccc31)c1ccccc12`
stdout: label 1

stdin: Next: `CC(C)C(=O)Nc1ccc([N+](=O)[O-])c(C(F)(F)F)c1`
stdout: label 1

stdin: Next: `CC(=O)OCC(CCn1cnc2cnc(N)nc21)COC(C)=O`
stdout: label 0

stdin: Next: `CN(C)CCOC(c1ccccc1)c1ccccc1`
stdout: label 1

stdin: Next: `O=c1c(-c2ccc(O)cc2)coc2cc(O)cc(O)c12`
stdout: label 1

Others:
stdin: Tell me the assay call for `CN1C(C(=O)Nc2ccccn2)=C(O)c2ccccc2S1(=O)=O` please.
stdout: label 0

stdin: Next: `Cn1ccc2cc3c(cc21)CCN3C(=O)Nc1cccnc1`
stdout: label 1

stdin: Next: COc1ccccc1N1CCN(CC(O)COc2cccc3ccccc23)CC1 (centres undefined)
stdout: label 0

stdin: Next: `Clc1ccccc1C(c1ccccc1)(c1ccccc1)n1ccnc1`
stdout: label 1

stdin: Next: `CN1CCC(=C2c3ccccc3C=Cc3ccccc32)CC1`
stdout: label 1

stdin: Next: `CC12CC3CC(C)(C1)CC(N)(C3)C2`
stdout: label 1

====

- System: UISO
- Measurement notes: qHTS assay to identify novel small-molecules to repurpose for Merkel cell carcinoma treatment (AID 1296009); note: % is set by controls: 0 for no effect and ±100 for the full control effect; nearly all actives have a fitted effect of over 60% in size
- Condition context: MCC and control cell lines, CellTiter-Glo viability, 72 h; series mostly up to 46 µM
Inconclusive results are not listed. Calls of active or inactive are those of the source. The call rests on the fitted dose curve; in most records, active means well fitted inhibition curve with a large enough effect; inconclusive means small, poorly fitted or top-dose-only effect; inactive means flat fitted curve, though single readings scatter.
Permitted responses: class 1 (active), class 0 (inactive)

These recorded examples may help you get a feel for the data.
stdin: Tell me the assay call for COc1ccc(CCN(C)CCCC(C#N)(c2ccc(OC)c(OC)c2)C(C)C)cc1OC (stereo not given) please.
stdout: class 0

stdin: Next: CCCNCC(O)COc1ccccc1C(=O)CCc1ccccc1 (stereo not given)
stdout: class 0

Others:
stdin: Tell me the assay call for Cc1ccccc1N1C(=O)c2cc(S(N)(=O)=O)c(Cl)cc2NC1C (stereo not given) please.
stdout: class 0

stdin: Next: `CN1CCN(CCCN2c3ccccc3Sc3ccc(Cl)cc32)CC1`
stdout: class 0

====

- Measured on: Guanine nucleotide-binding protein G(i) subunit alpha-1 (Homo sapiens) (UniProt P63096)
- Sequence (P63096 whole entry, looked up): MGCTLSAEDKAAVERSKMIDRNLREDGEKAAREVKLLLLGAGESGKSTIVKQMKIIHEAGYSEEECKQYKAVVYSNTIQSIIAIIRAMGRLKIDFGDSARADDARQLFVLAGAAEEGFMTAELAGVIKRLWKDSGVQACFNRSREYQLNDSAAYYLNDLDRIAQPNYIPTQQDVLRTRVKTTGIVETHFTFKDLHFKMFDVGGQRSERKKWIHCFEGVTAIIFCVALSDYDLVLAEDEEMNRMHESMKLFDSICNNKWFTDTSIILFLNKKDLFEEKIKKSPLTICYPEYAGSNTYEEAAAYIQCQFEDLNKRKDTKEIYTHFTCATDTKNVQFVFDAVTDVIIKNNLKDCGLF
- Measurement notes: qHTS Assay for Inhibitors of RGS12 GoLoco Motif Activity (Green Fluorophore) (AID 879);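 note: 0% = labeled peptide with Gαi1 and full inhibition = labeled peptide alone without protein; negative values mean loss of peptide binding seen as reduced polarization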
- Condition context: Galphai1/FITC-RGS12 GoLoco peptide, fluorescence polarization; series mostly up to 57.1 µM
Calls of active or inactive are those of the source. Calls follow the shape of the dose curve; as a rule, active = well fitted curve in the direction sought with a large enough effect; inconclusive = small, poorly fitted or top-dose-only effect, or another doubt; inactive = no such curve, though single readings can be large or run the other way.
Reported property: outcome

Some compounds with recorded outcome:
stdin: Which value of outcome has been reported for `Cn1c(=O)c2c(ncn2C)n(C)c1=O` in the records?
stdout: inactive

stdin: Next: `COc1ccc2c(c1)c(CC(=O)O)c(C)n2C(=O)c1ccc(Cl)cc1`
stdout: inactive

stdin: Next: `COc1nc(C)nc(Cl)c1NC1=NCCN1`
stdout: inactive

stdin: Next: `O=C1c2c(O)ccc(O)c2C(=O)c2c(NCCNCCO)ccc(NCCNCCO)c21`
stdout: inactive

stdin: Next: COc1ccc(C2CNC(=O)C2)cc1OC1CCCC1 (stereo unspecified)
stdout: inactive

Now look at this one.
stdin: Which value of outcome has been reported for `Cc1cc(C(C)(C)C)cc(C)c1CC1=NCCN1` in the records?
stdout: inactive

====

Recorded cell viability, % of control (lower = more cytotoxic) values for a group of molecules are listed next.
- Measurement notes: High-throughput drug toxicity screening in the BPDCN cell line Gen2.2 (AID 1224824);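 note: cells exposed to compounds for 48 h before reading; 100% = DMSO and 0% = bortezomib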
- Condition context: Gen2.2 BPDCN cells; at 45.8 µM (top of the series) unless noted
- Description: Blastic plasmacytoid dendritic cell neoplasm (BPDCN) is a rare, aggressive and largely incurable hematologic malignancy originating from plasmacytoid dendritic cells (pDCs). Although an initial response to chemotherapy is common, BPDCN prognosis is extremely poor and most patients relapse with drug-resistant disease leading to a median overall survival of ~1 year after diagnosis. […]
Supply the numeric figure in %, leaving out any unit text.

Some molecules with recorded cell viability, % of control (lower = more cytotoxic):
stdin: Which value of cell viability, % of control (lower = more cytotoxic) has been reported for `COc1cc2nc(N3CCN(C(=O)c4ccco4)CC3)nc(N)c2cc1OC` in the records?
stdout: 8.89

stdin: Next: `CC[C@@]1(O)C(=O)OCc2c1cc1n(c2=O)Cc2cc3c(CN(C)C)c(O)ccc3nc2-1`
stdout: 14.6

stdin: Next: `NS(=O)(=O)c1cc2c(cc1Cl)NCNS2(=O)=O`
stdout: 159

Others:
stdin: Which value of cell viability, % of control (lower = more cytotoxic) has been reported for `CN1CCN(CCCN2c3ccccc3Sc3ccc(Cl)cc32)CC1` in the records?
stdout: 107

stdin: Next: `Cc1cn([C@H]2C[C@H](N=[N+]=[N-])[C@@H](CO)O2)c(=O)[nH]c1=O`
stdout: 59.6

stdin: Next: `CCOC(=O)Nc1ccc(NCc2ccc(F)cc2)nc1N`
stdout: 166

stdin: Next: `CS(=O)(=O)Nc1ccc([N+](=O)[O-])cc1Oc1ccccc1`
stdout: 111

stdin: Next: CC(CCc1ccc(O)cc1)NCCc1ccc(O)c(O)c1 (stereo not drawn)
stdout: 5

stdin: Next: `CC12CC3CC(C)(C1)CC(N)(C3)C2`
stdout: 26.5

stdin: Next: `C[C@](N)(Cc1ccc(O)c(O)c1)C(=O)O`
stdout: 46.6
